Values compiled from patent US10654818B2.

Subject Of Test: recombinant, N-terminally GST-tagged ATAD2 bromodomain amino acids 981-1108 (Homo sapiens)
Construct: ATAD2 bromodomain amino acids 981-1108
Sequence (Q6PL18 981-1108): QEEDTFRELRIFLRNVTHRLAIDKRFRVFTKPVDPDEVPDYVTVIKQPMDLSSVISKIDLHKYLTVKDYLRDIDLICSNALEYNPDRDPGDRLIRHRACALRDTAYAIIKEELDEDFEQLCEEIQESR
Assay Remarks: TR-FRET assay: disruption of the interaction between ATAD2 and acetylated Histone H4 (Ac-H4) peptide
Condition Set: inhibition of ATAD2/Ac-H4 complex formation; 10 nM ATAD2, 50 nM Ac-H4 peptide
pIC50: −log10 of the molar value.
Parameter: pIC50

Molecule	Subject Of Test	Recorded Result
CNC(=O)C[C@@H](Cc1ccc(C#N)cc1)NC(=O)c1ccc(C#N)c(-c2ccc(CN[C@H](C)c3ccc(C)cc3)o2)c1 [Example 91]	recombinant, N-terminally GST-tagged ATAD2 bromodomain amino acids 981-1108 (Homo sapiens)	4.87

(P) Cc1ccc([C@@H](C)NCc2ccc(-c3ccc(Cl)c(C(=O)N[C@@H](CNC4CCNCC4F)Cc4ccc(C#N)cc4)c3)o2)cc1 (stereo partly drawn) [Example 73]
(Q) Cc1ccc([C@@H](C)NCc2ccc(-c3ccc(Cl)c(C(=O)N[C@@H](CO)Cc4ccc(C#N)c(N)c4)c3)o2)cc1 [Example 40]
Name the one with the greater pIC50 value, either P or Q as given. Respond with the label that goes with your answer.
P
